Fold (induction of luciferase gene expression): recorded values
Test system: luciferase gene expression in HEK 293 cells in response to Comp. 004
METHOD: Screen of riboswitch constructs with 12C6-1 variant aptamers (libraries N1-N5) against Comp. 004, luciferase in HEK 293 cells
Assay type: cell-based, human
EXPERIMENTAL CONDITIONS: library N1 (J2-4), HEK 293, 25 M [sic] Comp. 004
Write the answer as a number in fold, unit excluded.

These recorded examples may help you get a feel for the data.
Query string: Entry N1_2E5 (CTGGGGAGTCCTTCATGCGGGGC; chemistry not given here) : reported Fold (induction of luciferase gene expression) = ?
Result string: 35.05

Query string: Entry N1_2D2 (CTGGGGAGTCCTTCATGCGGGGC; chemistry not given here) : reported Fold (induction of luciferase gene expression) = ?
Result string: 102.23

Query string: Entry N1_2H5 (CTGGGGAGTCCTTCATGCGGGGC; chemistry not given here) : reported Fold (induction of luciferase gene expression) = ?
Result string: 1.62

Query string: Entry N1_2H1 (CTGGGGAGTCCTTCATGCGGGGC; chemistry not given here) : reported Fold (induction of luciferase gene expression) = ?
Result string: 9.41

Query string: Entry N1_2G8 (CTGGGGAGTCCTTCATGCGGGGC; chemistry not given here) : reported Fold (induction of luciferase gene expression) = ?
Result string: 8.46

Query string: Entry N1_2G6 (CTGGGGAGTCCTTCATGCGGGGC; chemistry not given here) : reported Fold (induction of luciferase gene expression) = ?
Result string: 11.00

Query string: Entry N1_2F4 (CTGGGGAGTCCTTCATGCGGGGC; chemistry not given here) : reported Fold (induction of luciferase gene expression) = ?
Result string: 4.74

Query string: Entry N1_2H11 (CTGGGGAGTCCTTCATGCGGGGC; chemistry not given here) : reported Fold (induction of luciferase gene expression) = ?
Result string: 2.83

---
Query string: Entry N1_2G1 (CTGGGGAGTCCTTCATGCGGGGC; chemistry not given here) : reported Fold (induction of luciferase gene expression) = ?
Result string: 100.11

Query string: Entry N1_2H9 (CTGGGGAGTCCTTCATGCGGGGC; chemistry not given here) : reported Fold (induction of luciferase gene expression) = ?
Result string: 1.91

Query string: Entry N1_2F12 (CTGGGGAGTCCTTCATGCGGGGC; chemistry not given here) : reported Fold (induction of luciferase gene expression) = ?
Result string: 1.83

Query string: Entry N1_2H10 (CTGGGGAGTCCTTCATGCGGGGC; chemistry not given here) : reported Fold (induction of luciferase gene expression) = ?
Result string: 16.82

Query string: Entry N1_2D5 (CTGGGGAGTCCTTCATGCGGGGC; chemistry not given here) : reported Fold (induction of luciferase gene expression) = ?
Result string: 35.71
